All figures here come from ChEMBL document CHEMBL4229337.

Xanthine dehydrogenase/oxidase (Bos taurus, UniProt P80457) IC50 data
Sequence (P80457 whole entry): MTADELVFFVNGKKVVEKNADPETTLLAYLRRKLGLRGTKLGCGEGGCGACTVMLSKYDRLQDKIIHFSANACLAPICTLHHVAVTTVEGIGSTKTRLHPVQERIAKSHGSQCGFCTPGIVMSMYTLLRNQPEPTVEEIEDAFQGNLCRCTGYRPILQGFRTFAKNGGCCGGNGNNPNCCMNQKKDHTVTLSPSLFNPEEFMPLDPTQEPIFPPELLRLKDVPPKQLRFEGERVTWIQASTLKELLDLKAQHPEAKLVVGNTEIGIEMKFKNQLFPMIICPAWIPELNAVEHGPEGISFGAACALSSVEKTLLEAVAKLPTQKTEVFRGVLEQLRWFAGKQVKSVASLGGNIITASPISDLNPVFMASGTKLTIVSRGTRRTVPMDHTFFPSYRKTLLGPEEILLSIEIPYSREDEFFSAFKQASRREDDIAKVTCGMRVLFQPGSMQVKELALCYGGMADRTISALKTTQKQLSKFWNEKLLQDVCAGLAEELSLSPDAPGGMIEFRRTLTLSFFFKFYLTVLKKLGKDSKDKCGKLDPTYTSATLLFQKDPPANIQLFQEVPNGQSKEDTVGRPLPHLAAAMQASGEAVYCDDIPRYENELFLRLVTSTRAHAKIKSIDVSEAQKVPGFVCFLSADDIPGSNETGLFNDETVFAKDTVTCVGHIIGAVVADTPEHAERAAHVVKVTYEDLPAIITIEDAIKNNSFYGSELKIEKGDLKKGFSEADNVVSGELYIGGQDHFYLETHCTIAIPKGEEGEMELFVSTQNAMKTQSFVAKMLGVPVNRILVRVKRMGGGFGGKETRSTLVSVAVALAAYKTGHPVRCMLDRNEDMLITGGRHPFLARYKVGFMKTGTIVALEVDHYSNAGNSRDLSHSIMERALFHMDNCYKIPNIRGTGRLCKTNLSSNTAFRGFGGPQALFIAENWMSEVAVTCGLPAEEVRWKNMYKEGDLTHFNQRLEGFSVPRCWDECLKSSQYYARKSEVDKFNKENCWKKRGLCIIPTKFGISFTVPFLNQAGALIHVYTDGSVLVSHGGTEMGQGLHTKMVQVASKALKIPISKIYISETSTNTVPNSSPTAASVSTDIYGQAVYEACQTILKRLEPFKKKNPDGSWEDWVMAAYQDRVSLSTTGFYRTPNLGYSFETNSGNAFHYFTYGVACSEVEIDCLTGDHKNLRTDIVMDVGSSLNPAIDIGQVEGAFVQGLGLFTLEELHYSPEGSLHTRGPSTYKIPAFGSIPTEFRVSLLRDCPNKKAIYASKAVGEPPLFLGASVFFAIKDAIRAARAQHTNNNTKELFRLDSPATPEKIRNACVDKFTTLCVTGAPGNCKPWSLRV
REPORTED_ENDPOINT: IC50 (µM)

a = CC(C)COc1ccc(-c2nc(-c3cccnc3)cn2O)cc1C#N
b = CC(C)CCOc1ccc(-c2nc(-c3ccncc3)cn2O)cc1C#N
Prompt: Hi, I'm comparing a with b and wondering which one has the bigger number for IC50. Any idea? Indicate your choice by writing its label.
Completion: a
